molecular target: PARD3_3, Q8TEW0; assay: holdup assay; set-up: key: below the threshold = too weak to quantify, mostly under pKd 3.1 to 4; conditions: plain residues with an end cap or a label only (N-terminal biotin on a linker: ahx)
Sequence (Q8TEW0 582-685): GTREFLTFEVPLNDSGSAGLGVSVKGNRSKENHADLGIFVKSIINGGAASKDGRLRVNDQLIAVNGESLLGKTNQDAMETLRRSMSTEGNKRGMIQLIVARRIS
Parameter Measured: pKd
Just the number.

{"Binder": "LSDPSVSTVV [GRIN1, Q05586]", "Test Result": 3.56}

Read the next record carefully.
Query: State the recorded pKd for this entry: SDSSGQEYSL [KCTD3, Q9Y597]
Response: 4.58
